- Particulars: buffer; pH 7.4; 200.0 µM
So I've got a bunch of molecules here, and I need their solubility kinetic values.

[Q] Requested field: solubility kinetic. Item: CN(CC(=O)Nc1ccccc1C(=O)NC1CC1)Cc1ccco1
[A] > 49.1 µg/mL

[Q] Now give it for Cc1cc(C(=O)N2CCN(c3ccc([N+](=O)[O-])cc3)CC2)n[nH]1 too.
[A] > 47.3 µg/mL

[Q] Moving on to Cc1cc(C)cc(NC(=O)c2cc(C)nc3ccccc23)c1
[A] < 0.3 µg/mL

[Q] Please give the result for Cc1csc(=Nc2ccccc2)n1CCCN1CCCC1=O too.
[A] > 47.3 µg/mL

[Q] How about this molecule: COc1ccccc1OCC(=O)N1CCCCCCC1
[A] > 41.6 µg/mL

[Q] Moving on to the next molecule: OC1CCN(Cc2ccc(OCc3ccccc3)cc2)CC1
[A] > 44.6 µg/mL

[Q] Field entry: Cc1ccc2nc(-c3ccc(NC(=O)COCC(=O)O)cc3)sc2c1
[A] > 53.5 µg/mL

[Q] Now this one: N/C(=N\[N+](=O)[O-])N1CCN(C(=O)c2ccccc2)CC1
[A] > 41.6 µg/mL

[Q] And the next one, O=C(O)c1cn(C2CCCCC2)c2ccccc2c1=O ?
[A] > 40.7 µg/mL

[Q] And the next one, COc1ccc(-c2ccnc(-c3ccncc3)n2)cc1 ?
[A] > 39.5 µg/mL

[Q] Consider next the molecule COc1cc(CCN)ccc1O.Cl in the same way.
[A] > 30.6 µg/mL

[Q] O=[N+]([O-])c1ccc(-c2cnc3ccccc3n2)cc1 , same question.
[A] 0.6 µg/mL

[Q] Follow-up item: CSc1ncccc1C(=O)Nc1cccc(C)n1
[A] > 38.9 µg/mL

[Q] Check CN(C)/C=C1\Cc2ccccc2C1=O too.
[A] > 28.1 µg/mL

[Q] How about this molecule: COc1ccccc1C(=O)NCCC(=O)N1CCCC(C)C1 (stereo unspecified)
[A] > 45.7 µg/mL

[Q] Note, next up: O=C(COC(=O)c1ccc(Br)o1)NCc1ccc2c(c1)OCO2
[A] 29.9 µg/mL

[Q] Same for CCC(C)N(C(=O)CSc1nncn1C)C1CCS(=O)(=O)C1 (stereo unspecified)
[A] > 52 µg/mL

[Q] Field entry: CCN(CC)c1ccc(CNc2nc3ccccc3n2C(C)C)cc1
[A] 0.3 µg/mL

[Q] Record: CC1(C)CC(=O)C(C2=NC3(CCCCC3)Cc3ccccc32)=C(O)C1
[A] > 50.6 µg/mL

[Q] Okay, and CC1CCCCN1Cc1cccnc1.O=C(O)C(=O)O (stereo unspecified) ?
[A] > 42 µg/mL

[Q] Queued: CCCc1cnc(N2CCN(C(=O)c3c(-c4ccccc4)noc3C)CC2)nc1
[A] 40.7 µg/mL

[Q] Then Fc1cccc(-c2csc(-c3ccno3)n2)c1 ?
[A] 3.6 µg/mL

[Q] What about this molecule? O=C(COC(=O)c1cc(Cl)ccc1Cl)NC1CCCC1
[A] 23.8 µg/mL

[Q] Then this molecule: O=C(COc1ccc([N+](=O)[O-])cc1Cl)N1CCc2ccccc21
[A] 2.4 µg/mL

[Q] Same question for CCn1c(C)c(C(=O)O)c2cc(OC)c3ccccc3c21 please.
[A] 16.8 µg/mL

[Q] Try O=C1CSC(c2ccc(Cl)cc2)N1c1cccnc1 (stereo unspecified) next.
[A] 42.1 µg/mL
